Tested on: K-562 leukemia
RUN_DESCRIPTION: NCI-60 one-dose screen, 48 h
REPORTED_CONDITIONS: 10 µM
The panel holds about 83,000 compounds, 20% with a hit somewhere; the sample as a whole holds those more often. Calls of active or inactive are those of the source. How the source made its calls: active means growth percent below 10; inactive means the rest. Starred links: 1 amine or outer side, 2 acyl side, 3 side chain; linkers in the order of their positions; H or OH if unused. Positions of bridges follow the written chain, without caps; N, C: chain ends. Non-standard residues stand in square brackets, D forms with d. Residues, ends and D or L forms follow the SMILES beside them. Chains are numbered I, II in the order given. Actinocin(9to1) = Cc1c2oc3c(C)ccc(C(=O)[*:1])c3nc-2c(C(=O)[*:2])c(N)c1=O; aThr = C[C@H](O)[C@H](N)C(=O)O; NMeV = CN[C@H](C(=O)O)C(C)C; Sar = CNCC(=O)O
Labels: active, inactive

1. O=C(/C(=C/c1ccccc1)CBr)c1ccccc1    active
2. Cc1c2oc3c(C)ccc(C(=O)N[C@@H]4C(=O)N[C@H](C(C)C)C(=O)N5CCC[C@H]5C(=O)N(C)CC(=O)N(C)[C@@H](C(C)C)C(=O)O[C@H]4C)c3nc-2c(C(=O)N[C@@H]2C(=O)N[C@H](C(C)C)C(=O)N3CCC[C@H]3C(=O)N(C)CC(=O)N(C)[C@@H](C(C)C)C(=O)O[C@H]2C)c(N)c1=O (I: [aThr][dV]P[Sar][NMeV] / II: [aThr][dV]P[Sar][NMeV]; ester I:1-I:C, II:1-II:C; linker I:N-II:N via Actinocin(9to1))    active
3. BrC/C=C/C[P+](c1ccccc1)(c1ccccc1)c1ccccc1    inactive
4. Cc1cnc(/C=N\NC(N)=S)c2cccc(N)c12    inactive
5. Cc1cc(NCCCN(C)C)c2ccc3c(ccc4c(NCCCN(C)C)cc(C)nc43)c2n1    active
